# ΔTm values compiled below
# system tested: Dual specificity protein kinase CLK1 (Homo sapiens)
measured metric: ΔTm (°C)

smiles repr | measured metric | assay value
CN1CCc2[nH]c(=S)c(C#N)c(-c3cccs3)c2C1 | ΔTm | 2.4
COc1cc(OC)c(/C=C2\C(=O)Nc3ccccc32)c(OC)c1 | ΔTm | 0.1
OC[C@H]1O[C@@H](n2cnc3cc(Cl)c(Cl)cc32)[C@H](O)[C@@H]1O | ΔTm | 3.1
COC1=C2C[C@@H](C)C[C@H](OC)[C@H](O)[C@@H](C)/C=C(\C)[C@H](OC(N)=O)[C@@H](OC)/C=C\C=C(/C)C(=O)NC(=CC1=O)C2=O | ΔTm | 0.6
C[C@@H](N)[C@H]1CC[C@H](C(=O)Nc2ccncc2)CC1 | ΔTm | 2.1
CCN(CC)CCNC(=O)c1c(C)[nH]c(/C=C2\C(=O)Nc3ccc(Cl)cc32)c1C | ΔTm | 6.6
O=C(Nc1cccc(Nc2nccc(Nc3cccc(C(F)(F)F)c3)n2)c1)C1CC1 | ΔTm | 1.9
O=C1Nc2ccccc2/C1=C1/Nc2ccccc2/C1=N\O | ΔTm | 7.7

* * *

# ΔTm per entry for Mitogen-activated protein kinase 6 (Homo sapiens)
measured metric: ΔTm

smiles repr | system tested | assay value
COc1cc2ncnc(Nc3cccc(Br)c3)c2cc1OC | Mitogen-activated protein kinase 6 (Homo sapiens) | -0.1 °C
CCOc1ccc(/C=C2/SC(=O)N(CCN)C2=O)cc1 | Mitogen-activated protein kinase 6 (Homo sapiens) | 0.6 °C
O=c1c2ccccc2[nH]c(=S)n1CCN1CCC(=C(c2ccc(F)cc2)c2ccc(F)cc2)CC1 | Mitogen-activated protein kinase 6 (Homo sapiens) | -0.1 °C
NC(=O)c1ccc(-c2nc(-c3ccc4c(c3)OCCO4)c(-c3ccccn3)[nH]2)cc1 | Mitogen-activated protein kinase 6 (Homo sapiens) | -0.1 °C

* * *

Listed here: items and their measured ΔTm.
# system tested: Cyclin-dependent kinase 2 (Homo sapiens, UniProt P24941)

molecule | ΔTm (°C)
C/C(O)=C(\C#N)C(=O)Nc1cc(Br)ccc1Br | 1
COc1ccc(Cl)cc1NC(=O)Nc1cc(C)nc2ccccc12 | -0.6
O=C1NC(=O)c2c1c1c3ccccc3[nH]c1n1cncc21 [ISOGRANULATIMIDE] | 5.2
O=C1C=C2C(=Nc3c2c2c(c4c3=NC3=C4CCC=C3)C=NC=2)CC1 | 4
COc1ccc2c(c[n+](C)c3c4cc5c(cc4ccc23)OCO5)c1OC [CHELERYTHRINE CHLORIDE] | 0.2
O=c1cc(N2CCOCC2)oc2c(-c3ccccc3)cccc12 | 0.4
COc1ccc(S(=O)(=O)N(CCO)c2ccccc2CN(C)C/C=C/c2ccc(Cl)cc2)cc1 | 0
NC(=O)c1ccc(-c2nc(-c3ccc4c(c3)OCCO4)c(-c3ccccn3)[nH]2)cc1 | 0.6
CC(C)n1cnc2/c(=N/c3cccc(Cl)c3)nc(NCCO)[nH]c21 | 1.6
CN(C)CCCn1cc(C2=C(c3c[nH]c4ccccc34)C(=O)NC2=O)c2ccccc21 | 1.7
Cn1cc(/C=C2/C(=O)Nc3ccc(S(N)(=O)=O)cc32)c2ccccc21 | 1.3
Cc1cc(C=C2C(=O)C=CC2=O)cc(C)c1O | 1
O=C1Nc2ccccc2/C1=C1/Nc2ccccc2/C1=N\O | 9.1
COC1=C2C[C@@H](C)C[C@H](OC)[C@H](O)[C@@H](C)/C=C(\C)[C@H](OC(N)=O)[C@@H](OC)/C=C\C=C(/C)C(=O)NC(=CC1=O)C2=O | 0.5

* * *

Recorded ΔTm values (cAMP-dependent protein kinase catalytic subunit alpha (Homo sapiens)) are given below.
measured metric: ΔTm (°C)

smiles repr | assay value
O=C(O)Cc1ccc(O)c([N+](=O)[O-])c1 | -0.9
COc1cc(C[C@H]2C(=O)OC[C@@H]2Cc2ccc(OC)c(OC)c2)ccc1O | 0.2
COC1=C2C[C@@H](C)C[C@H](OC)[C@H](O)[C@@H](C)/C=C(\C)[C@H](OC(N)=O)[C@@H](OC)/C=C\C=C(/C)C(=O)NC(=CC1=O)C2=O | 1.1
CN(C)S(=O)(=O)c1ccc2c(c1)/C(=C/c1cc3c([nH]1)CCCC3)C(=O)N2 | 2.5
COc1ccc(COc2ccc(Cc3cnc(N)nc3N)cc2OC)cc1 | -0.2
CC(C)[C@H](CO)Nc1nc(Nc2cc(N)cc(Cl)c2)c2ncn(C(C)C)c2n1 | 6.5
Clc1ccc(Nc2nnc(Cc3ccncc3)c3ccccc23)cc1 | 0.2

* * *

# system tested: Serine/threonine-protein kinase 16 (Homo sapiens)

compound | ΔTm (°C)
CC(C)c1cc(/C=C(\C#N)C(=O)NCCCc2ccccc2)cc(C(C)C)c1O | 0.5
NC1=NC(=O)/C(=C2\CCNC(=O)c3[nH]c(Br)cc32)N1 [HYMENIALDISINE] | 1.5
Nc1cc2ncnc(Nc3cccc(Br)c3)c2cc1N | 0.1
NCCNc1ncc(C(N)=O)c(Nc2cccc(C(F)(F)F)c2)n1 | 1.9
O=C1C(Cl)=C(N2C(=O)CCC2=O)C(=O)c2ccccc21 | -0.1
NC(=O)c1ccc(-c2nc(-c3ccc4c(c3)OCCO4)c(-c3ccccn3)[nH]2)cc1 | 0.1
CCOc1cc(/C=C(\C#N)C(N)=O)cc(CSc2ccccc2)c1O | 1
CN(C)c1ccc(CC2C(=O)Nc3ccccc32)cc1 (centres undefined) | 1.9
CN(c1cccnc1)c1cc2c(Nc3ccc(F)c(Cl)c3)c(C#N)cnc2cn1 | 8.7
CC(C)[C@H](CO)Nc1nc(Nc2cc(N)cc(Cl)c2)c2ncn(C(C)C)c2n1 [AMINOPURVALANOL] | 0.2
Cl.Cn1cc(C2=C(c3ccc4cc5n(c4c3)CCC(CN)C5)C(=O)NC2=O)c2ccccc21 (centres undefined) | 1.2
CCOc1cc2ncnc(Nc3cccc(Br)c3)c2cc1OCC | 0.9
O=C1Cc2c([nH]c3ccc(Br)cc23)-c2ccccc2N1 [KENPAULLONE] | 0.7
O=C1Nc2ccccc2/C1=C/c1cnc[nH]1 | 7.5
Nc1ncnc2c1c(I)cn2[C@@H]1O[C@H](CO)[C@@H](O)[C@H]1O | 3.9
Cc1cncc2cccc(S(=O)(=O)N3CCCNC[C@@H]3C)c12 | 1.1
COc1ccc(S(=O)(=O)N(CCO)c2ccccc2CN(C)C/C=C/c2ccc(Cl)cc2)cc1 | 0.5
O=c1c(O)c(-c2ccc(O)c(O)c2)oc2cc(O)cc(O)c12 [QUERCETIN] | 4.8
CN(C)S(=O)(=O)c1ccc2c(c1)/C(=C/c1cc3c([nH]1)CCCC3)C(=O)N2 | 0.3
CN(C)CCCn1cc(C2=C(c3c[nH]c4ccccc34)C(=O)NC2=O)c2ccccc21 [GF-109203] | 2.1
CCOc1ccc(/C=C2/SC(=O)N(CCN)C2=O)cc1 [HIAZOLIDINEDIONE1] | -0.1
CC(C)c1nn(-c2c(Cl)cccc2Cl)c2nc(Cc3ccc(OCCO)cc3)[nH]c(=O)c12 | 1.4
Brc1c(Br)c(Br)c2[nH]nnc2c1Br [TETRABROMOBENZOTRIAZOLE] | 1.1
O=Nc1c(-c2c(O)[nH]c3ccccc23)[nH]c2ccccc12 | 5.1

* * *

Record: ΔTm reported on Serine/threonine-protein kinase OSR1 (Homo sapiens).

compound | system tested | ΔTm / °C
O=C1C(Cl)=C(N2C(=O)CCC2=O)C(=O)c2ccccc21 | Serine/threonine-protein kinase OSR1 (Homo sapiens) | -1.4
CSc1nc(-c2ccc(F)cc2)c(-c2ccnc(NC(C)c3ccccc3)c2)[nH]1 (racemic) | Serine/threonine-protein kinase OSR1 (Homo sapiens) | 0.3
CC(C)N(CCO)c1nc(Nc2cccc(Cl)c2)c2ncn(C(C)C)c2n1 | Serine/threonine-protein kinase OSR1 (Homo sapiens) | 1.3
NC(=O)c1ccc(-c2nc(-c3ccc4c(c3)OCCO4)c(-c3ccccn3)[nH]2)cc1 | Serine/threonine-protein kinase OSR1 (Homo sapiens) | -0.1
O=C1Nc2ccc(S(=O)(=O)O)cc2/C1=C1/Nc2ccccc2/C1=N\O | Serine/threonine-protein kinase OSR1 (Homo sapiens) | 0.1
Cc1nc2sccn2c(=O)c1CCN1CCC(=C(c2ccccc2)c2ccc(F)cc2)CC1 | Serine/threonine-protein kinase OSR1 (Homo sapiens) | 1
Nc1nc(Nc2ccc(S(N)(=O)=O)cc2)nn1C(=S)Nc1c(F)cccc1F | Serine/threonine-protein kinase OSR1 (Homo sapiens) | 5.6

* * *

The following are reported ΔTm results, target or system Ribosomal protein S6 kinase alpha-3 (Homo sapiens) (UniProt P51812).

compound | ΔTm [°C]
O=S(=O)(NCCNC/C=C/c1ccc(Br)cc1)c1cccc2cnccc12 | 2.2
COc1cc2c(cc1OC)-c1n[nH]c(Nc3cccc(F)c3)c1C2 | 2.2
COc1ccc(S(=O)(=O)N(CCO)c2ccccc2CN(C)C/C=C/c2ccc(Cl)cc2)cc1 | -0.9
O=C1C(Cl)=C(N2C(=O)CCC2=O)C(=O)c2ccccc21 | -0.8
CCN(CC)CCNC(=O)c1c(C)[nH]c(/C=C2\C(=O)Nc3ccc(Cl)cc32)c1C [SU-11652] | 8.5
